tgt: Lethal Factor (LF) protease of anthrax toxin (Bacillus anthracis, UniProt P15917)
Sequence (P15917 34-809 limits assumed): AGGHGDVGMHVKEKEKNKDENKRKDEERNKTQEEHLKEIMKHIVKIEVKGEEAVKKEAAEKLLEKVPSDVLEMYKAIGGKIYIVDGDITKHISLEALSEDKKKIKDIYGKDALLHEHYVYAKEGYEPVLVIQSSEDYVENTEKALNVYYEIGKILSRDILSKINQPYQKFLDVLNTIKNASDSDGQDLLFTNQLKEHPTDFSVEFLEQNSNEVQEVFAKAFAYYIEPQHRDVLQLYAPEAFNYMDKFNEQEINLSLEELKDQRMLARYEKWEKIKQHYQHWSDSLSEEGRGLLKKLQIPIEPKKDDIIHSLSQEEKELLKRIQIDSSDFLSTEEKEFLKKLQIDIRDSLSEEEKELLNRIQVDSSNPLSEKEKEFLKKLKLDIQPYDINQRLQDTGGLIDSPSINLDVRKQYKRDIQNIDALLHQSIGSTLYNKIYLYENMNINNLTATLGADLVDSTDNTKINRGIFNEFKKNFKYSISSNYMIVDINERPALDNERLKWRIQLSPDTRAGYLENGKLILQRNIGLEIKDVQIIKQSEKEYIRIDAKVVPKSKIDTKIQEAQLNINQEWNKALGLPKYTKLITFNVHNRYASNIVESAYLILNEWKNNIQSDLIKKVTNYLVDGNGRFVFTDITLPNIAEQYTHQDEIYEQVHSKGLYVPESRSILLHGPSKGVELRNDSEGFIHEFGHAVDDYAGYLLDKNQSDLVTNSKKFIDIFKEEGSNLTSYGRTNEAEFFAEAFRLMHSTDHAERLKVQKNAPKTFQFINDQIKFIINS
assay-details: biochemical
measurement-type: Ki (nM)

# molecule, measurement-type, data-value
rows = [
    ("O=C(O)CCN1C(=O)/C(=C/c2ccc(-c3ccc(Cl)cc3)o2)SC1=S [BI-MFM3]", "Ki", 800),
    ("O=C(O)CN1C(=O)/C(=C/c2ccc(-c3cc(C(F)(F)F)ccc3Cl)o2)SC1=S [BI-11B3]", "Ki", 32),
]

----------
tgt: Lethal Factor (LF) protease of anthrax toxin (Bacillus anthracis, UniProt P15917)
assay-details: biochemical
test-settings: read-out: IC50
pIC50: −log10 of the molar value.

# structure-smiles-string, tgt, pIC50
records = [
    ("O=C(O)CN1C(=O)/C(=C/c2ccc(-c3ccccc3)o2)SC1=S", "Lethal Factor (LF) protease of anthrax toxin (Bacillus anthracis, UniProt P15917)", 4.78),
    ("O=C(O)CN1C(=O)/C(=C/c2ccc(-c3ccc(Cl)cc3)o2)SC1=S", "Lethal Factor (LF) protease of anthrax toxin (Bacillus anthracis, UniProt P15917)", 6.05),
    ("O=C(O)CN1C(=O)/C(=C/c2ncc(-c3ccc(Cl)cc3)s2)SC1=S", "Lethal Factor (LF) protease of anthrax toxin (Bacillus anthracis, UniProt P15917)", 5.00),
    ("O=C(O)CN1C(=O)/C(=C/c2ccc(-c3ccc(Br)cc3)o2)SC1=S", "Lethal Factor (LF) protease of anthrax toxin (Bacillus anthracis, UniProt P15917)", 6.07),
    ("O=C1NC(=S)NC(=O)C1=Cc1ccc(-c2ccc(Cl)c(Cl)c2)o1", "Lethal Factor (LF) protease of anthrax toxin (Bacillus anthracis, UniProt P15917)", 5.68),
    ("O=C(O)CN1C(=O)/C(=C/c2ccco2)SC1=S", "Lethal Factor (LF) protease of anthrax toxin (Bacillus anthracis, UniProt P15917)", 3.85),
    ("O=C(O)CN1C(=O)/C(=C/c2ccc(-c3ccc(Cl)cc3)s2)SC1=S", "Lethal Factor (LF) protease of anthrax toxin (Bacillus anthracis, UniProt P15917)", 5.49),
    ("O=C1NC(=S)S/C1=C\\c1ccc(-c2ccc(Br)c(Cl)c2)o1", "Lethal Factor (LF) protease of anthrax toxin (Bacillus anthracis, UniProt P15917)", 5.15),
    ("O=C(O)c1ccc(-c2ccc(/C=C3\\SC(=S)N(Cc4cccnc4)C3=O)o2)cc1Cl", "Lethal Factor (LF) protease of anthrax toxin (Bacillus anthracis, UniProt P15917)", 5.00),
    ("C=CCN1C(=O)/C(=C/c2ccc(-c3ccc(F)cc3)o2)SC1=S", "Lethal Factor (LF) protease of anthrax toxin (Bacillus anthracis, UniProt P15917)", 4.30),
    ("O=C(O)CN1C(=O)/C(=C/c2ccc(-c3ccc(Cl)cc3[N+](=O)[O-])o2)SC1=S", "Lethal Factor (LF) protease of anthrax toxin (Bacillus anthracis, UniProt P15917)", 6.30),
    ("O=C1NC(=S)NC(=O)C1=Cc1ccc(-c2ccccc2)s1", "Lethal Factor (LF) protease of anthrax toxin (Bacillus anthracis, UniProt P15917)", 5.92),
    ("O=C(O)CCCN1C(=O)/C(=C/c2ccc(-c3ccc(Br)cc3)o2)SC1=S", "Lethal Factor (LF) protease of anthrax toxin (Bacillus anthracis, UniProt P15917)", 5.64),
    ("O=C1NC(=S)S/C1=C\\c1ccc(-c2ccc(Cl)c(Cl)c2)o1", "Lethal Factor (LF) protease of anthrax toxin (Bacillus anthracis, UniProt P15917)", 5.13),
    ("O=C1NC(=S)NC(=O)C1=Cc1ccc(-c2ccc(Cl)cc2)o1", "Lethal Factor (LF) protease of anthrax toxin (Bacillus anthracis, UniProt P15917)", 5.36),
    ("O=C1/C(=C/c2ccc(-c3ccc(Cl)cc3)o2)SC(=S)N1Cc1ccco1", "Lethal Factor (LF) protease of anthrax toxin (Bacillus anthracis, UniProt P15917)", 3.82),
    ("O=C(O)CN1C(=O)/C(=C/c2ccc(-c3ccc(I)cc3)o2)SC1=S", "Lethal Factor (LF) protease of anthrax toxin (Bacillus anthracis, UniProt P15917)", 5.26),
    ("COc1ccc(-c2cnc(/C=C3\\SC(=S)N(CC(=O)O)C3=O)s2)cc1OC", "Lethal Factor (LF) protease of anthrax toxin (Bacillus anthracis, UniProt P15917)", 5.30),
    ("O=C(O)CN1C(=O)/C(=C/c2ncc(-c3ccc(F)cc3)s2)SC1=S", "Lethal Factor (LF) protease of anthrax toxin (Bacillus anthracis, UniProt P15917)", 4.65),
    ("COc1ccc(-c2ccc(C=C3C(=O)NC(=S)NC3=O)o2)cc1Cl", "Lethal Factor (LF) protease of anthrax toxin (Bacillus anthracis, UniProt P15917)", 5.52),
    ("NS(=O)(=O)c1ccc(-c2ccc(/C=C3\\SC(=S)N(CC(=O)O)C3=O)o2)cc1", "Lethal Factor (LF) protease of anthrax toxin (Bacillus anthracis, UniProt P15917)", 5.04),
    ("O=C(O)CN1C(=O)S/C(=C\\c2ccc(-c3ccc(Cl)c(Cl)c3)o2)C1=O", "Lethal Factor (LF) protease of anthrax toxin (Bacillus anthracis, UniProt P15917)", 5.25),
    ("O=C(O)CN1C(=O)/C(=C/c2ccc(-c3cc(C(F)(F)F)ccc3Cl)o2)SC1=S", "Lethal Factor (LF) protease of anthrax toxin (Bacillus anthracis, UniProt P15917)", 6.71),
    ("CN1C(=N)NC(=O)/C1=C\\c1ccc(-c2ccc(Cl)cc2)o1", "Lethal Factor (LF) protease of anthrax toxin (Bacillus anthracis, UniProt P15917)", 3.70),
    ("O=C(O)CN1C(=O)/C(=C/c2nccs2)SC1=S", "Lethal Factor (LF) protease of anthrax toxin (Bacillus anthracis, UniProt P15917)", 4.14),
    ("O=C(O)CN1C(=O)/C(=C/c2ncc(-c3ccc(Br)cc3)s2)SC1=S", "Lethal Factor (LF) protease of anthrax toxin (Bacillus anthracis, UniProt P15917)", 5.36),
    ("O=C1NC(=S)NC(=O)C1=Cc1ccc(-c2cc(C(F)(F)F)ccc2Cl)o1", "Lethal Factor (LF) protease of anthrax toxin (Bacillus anthracis, UniProt P15917)", 5.89),
    ("C=CCN1C(=O)/C(=C/c2ccc(-c3ccc(C(=O)O)c(Cl)c3)o2)SC1=S", "Lethal Factor (LF) protease of anthrax toxin (Bacillus anthracis, UniProt P15917)", 5.57),
    ("O=C1/C(=C/c2ccc(-c3ccccc3[N+](=O)[O-])o2)SC(=S)N1CCc1ccccc1", "Lethal Factor (LF) protease of anthrax toxin (Bacillus anthracis, UniProt P15917)", 4.50),
    ("O=C(O)CN1C(=O)/C(=C/c2ccc(-c3ccc(Cl)c(Cl)c3)o2)SC1=S", "Lethal Factor (LF) protease of anthrax toxin (Bacillus anthracis, UniProt P15917)", 6.58),
    ("O=C(O)CCN1C(=O)/C(=C/c2ccc(-c3ccc(Cl)cc3)o2)SC1=S", "Lethal Factor (LF) protease of anthrax toxin (Bacillus anthracis, UniProt P15917)", 5.77),
    ("O=C(O)CN1C(=O)/C(=C/c2ccc(-c3ccccc3)s2)SC1=S", "Lethal Factor (LF) protease of anthrax toxin (Bacillus anthracis, UniProt P15917)", 6.13),
    ("O=C(O)CN1C(=O)/C(=C/c2cccs2)SC1=S", "Lethal Factor (LF) protease of anthrax toxin (Bacillus anthracis, UniProt P15917)", 4.10),
]
